Reference for the values: patent US20240150377A1

# reported EC50; entries follow
- Test target: F508del (Homo sapiens, UniProt P13569, DEL508-508)
- Construct: expressed in transfected cells
- Sequence (P13569 with tags, fused parts or gaps DEL508-508): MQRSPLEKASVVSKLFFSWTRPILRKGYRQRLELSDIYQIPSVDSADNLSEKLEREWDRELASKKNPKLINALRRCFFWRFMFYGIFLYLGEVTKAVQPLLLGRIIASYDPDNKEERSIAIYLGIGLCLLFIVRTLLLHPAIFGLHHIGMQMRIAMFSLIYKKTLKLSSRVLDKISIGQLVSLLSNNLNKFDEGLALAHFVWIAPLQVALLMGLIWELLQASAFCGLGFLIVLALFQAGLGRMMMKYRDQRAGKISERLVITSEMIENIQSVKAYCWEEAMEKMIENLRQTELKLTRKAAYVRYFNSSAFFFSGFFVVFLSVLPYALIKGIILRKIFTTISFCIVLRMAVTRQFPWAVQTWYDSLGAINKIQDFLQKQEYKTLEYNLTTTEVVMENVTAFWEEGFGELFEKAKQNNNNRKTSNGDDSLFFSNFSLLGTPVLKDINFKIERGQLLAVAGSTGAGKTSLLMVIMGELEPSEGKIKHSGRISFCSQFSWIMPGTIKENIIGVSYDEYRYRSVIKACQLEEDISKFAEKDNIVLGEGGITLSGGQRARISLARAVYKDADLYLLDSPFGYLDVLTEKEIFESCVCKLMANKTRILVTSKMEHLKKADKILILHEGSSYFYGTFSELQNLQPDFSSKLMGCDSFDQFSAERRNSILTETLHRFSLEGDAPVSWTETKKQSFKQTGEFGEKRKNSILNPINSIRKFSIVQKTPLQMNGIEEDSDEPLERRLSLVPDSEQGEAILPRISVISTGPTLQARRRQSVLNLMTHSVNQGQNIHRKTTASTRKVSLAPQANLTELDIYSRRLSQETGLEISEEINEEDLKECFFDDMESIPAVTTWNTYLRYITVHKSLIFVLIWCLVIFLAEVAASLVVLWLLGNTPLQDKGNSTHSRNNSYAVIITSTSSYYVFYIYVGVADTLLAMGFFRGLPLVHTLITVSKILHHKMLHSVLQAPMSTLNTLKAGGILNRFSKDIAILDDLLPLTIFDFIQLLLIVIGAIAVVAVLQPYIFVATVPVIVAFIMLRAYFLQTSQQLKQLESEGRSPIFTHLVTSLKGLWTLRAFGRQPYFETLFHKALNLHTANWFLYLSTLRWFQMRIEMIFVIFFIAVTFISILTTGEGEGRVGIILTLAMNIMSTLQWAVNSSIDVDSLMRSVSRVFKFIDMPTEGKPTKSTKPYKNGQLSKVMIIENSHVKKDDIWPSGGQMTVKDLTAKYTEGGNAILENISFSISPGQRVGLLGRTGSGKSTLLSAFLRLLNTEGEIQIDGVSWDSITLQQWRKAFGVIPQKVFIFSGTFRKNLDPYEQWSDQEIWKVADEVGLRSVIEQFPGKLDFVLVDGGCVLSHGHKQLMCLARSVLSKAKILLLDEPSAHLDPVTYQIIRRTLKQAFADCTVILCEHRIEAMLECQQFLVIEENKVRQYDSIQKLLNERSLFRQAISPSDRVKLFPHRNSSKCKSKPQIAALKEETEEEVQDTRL
- Method description: 3T3 assay: membrane potential optical assay for F508del correction
- Type: cell-based
- Condition: Table 6; F508del NIH 3T3 cells, 18-24 hours at 37° C.; forskolin, acutely added 300 nM Ivacaftor
- Source text: 1. Membrane Potential Optical Methods for Assaying F508del Modulation Properties of Compounds The assay utilizes fluorescent voltage sensing dyes to measure changes in membrane potential using a fluorescent plate reader (e.g., FLIPR III, Molecular Devices, Inc.) as a readout for increase in functional F508del in NIH 3T3 cells. […]

Please review the following examples before continuing.
Molecular string | EC50
Cc1cccc(C)c1-c1cc2nc(n1)NS(=O)(=O)c1cccc(c1)C(=O)N(CCO)[C@H](CC(C)C)CO2 | < 1 µM
Cc1cccc(C)c1-c1cc2nc(n1)NS(=O)(=O)c1cccc(c1)C(=O)N(C)[C@H](C)[C@@H](c1ccc(C(C)(C)C)cc1)O2 | < 1 µM

Please examine the following record next.
# get_value(readout='EC50', item= COc1ccc(CN2C(=O)c3cccc(c3)S(=O)(=O)Nc3nc(cc(-c4c(C)cccc4C)n3)OC[C@H]2CC(C)C)cc1 ) < 1 µM

----------
# reported EC50; entries follow
- Test target: CFTR (Homo sapiens, UniProt P13569)
- Method description: Membrane potential dye, Enteroid Assay A
- Format: cell-based
- Condition: Table 6; human enteroid cells, 18-24 hours; acute 10 μM forskolin and 300 nM ivacaftor; read-out: Ent. A EC50

# get_value(readout='EC50', item= Cc1cccc(C)c1-c1cc2nc(n1)NS(=O)(=O)c1cccc(c1)C(=O)N(Cc1ccccc1)CC(Cc1ccccc1)O2 (stereo in doubt) ) < 1000 nM

----------
- Test target: CFTR (Homo sapiens)
- Method description: Membrane potential dye, Enteroid Assay A
- Format: cell-based
- Condition: Table 6; chloride transport as % of triple combination control (Enteroid Assay A)

Molecular string | Ent. A Max Activity
Cc1cccc(C)c1-c1cc2nc(n1)NS(=O)(=O)c1cccc(c1)C(=O)N(Cc1cncn1C)[C@H](CC(C)C)CO2 | +++ (+++ is >60%)
Cc1cccc(C)c1-c1cc2nc(n1)NS(=O)(=O)c1cccc(c1)C(=O)N(Cc1ccncc1)CCO2 | +++ (+++ is >60%)

----------
- Test target: CFTR (Homo sapiens)
- Method description: Membrane potential dye, Enteroid Assay A
- Format: cell-based
- Condition: Table 6; chloride transport as % of triple combination control (Enteroid Assay A)
Measured parameter: Ent. A Max Activity

Please review the following examples before continuing.
Compound | Test target | Ent. A Max Activity
Cc1cccc(C)c1-c1cc2nc(n1)NS(=O)(=O)c1cccc(c1)C(=O)N(Cc1ccccc1)[C@@H](CCC1(C(F)(F)F)CC1)CO2 | CFTR (Homo sapiens) | ++ (++ is 30-60%)
Cc1cccc(C)c1-c1cc2nc(n1)NS(=O)(=O)c1cccc(c1)C(=O)N(Cc1cccc(C#N)c1)[C@H](CC(C)C)CO2 | CFTR (Homo sapiens) | +++ (+++ is >60%)
Cc1cccc(C)c1-c1cc2nc(n1)NS(=O)(=O)c1cccc(c1)C(=O)N(Cc1ccc(C3CCN(C)CC3)cc1)[C@H](CC(C)C)CO2 | CFTR (Homo sapiens) | +++ (+++ is >60%)
Cc1cccc(C)c1-c1cc2nc(n1)NS(=O)(=O)c1cccc(c1)C(=O)N(C)C[C@H](c1ccccc1)O2 [Compound 672] | CFTR (Homo sapiens) | ++ (++ is 30-60%)
Cc1cccc(C)c1-c1cc2nc(n1)NS(=O)(=O)c1cccc(c1)C(=O)N(C)CC(COCc1ccccc1)O2 (stereo not drawn) | CFTR (Homo sapiens) | ++ (++ is 30-60%)

Please examine the following record next.
Hello, I am looking for reported Ent. A Max Activity with CFTR (Homo sapiens) for Cc1cccc(C)c1-c1cc2nc(n1)NS(=O)(=O)c1cccc(c1)C(=O)N(Cc1ccccc1)C(C(=O)NC(C)(C)C)CO2 (stereo not drawn) . Could you help? ++ (++ is 30-60%)

----------
- Test target: UniProt:P13569
- Method description: Membrane potential dye, Enteroid Assay A
- Format: cell-based
- Condition: Table 7; human enteroid cells, 18-24 hours; acute 10 μM forskolin and 300 nM ivacaftor; read-out: Ent. A EC50
pEC50: −log10 of the molar value.
Measured parameter: pEC50

Molecular string | Measured parameter | Result
Cc1cccc(C)c1-c1cc2nc(n1)NS(=O)(=O)c1cccc(c1)CN(CCc1ccccc1)[C@H](CC(C)C)CO2 | pEC50 | > 6.00
Cc1cccc(C)c1-c1cc2nc(n1)NS(=O)(=O)c1cccc(c1)C(=O)N(Cc1ccc(N3CC[C@@H](O)C3)nc1)[C@H](CC(C)C)CO2 | pEC50 | > 6.00

# get_value(readout='pEC50', item= Cc1cccc(C)c1-c1cc2nc(n1)NS(=O)(=O)c1cccc(c1)C(=O)N(Cc1ccc(NCCN(C)C)nc1)[C@H](CC(C)C)CO2 ) > 6.00

----------
# reported EC50; entries follow
- Test target: CFTR (Homo sapiens, UniProt P13569, DEL508-508)
- Construct: endogenous in cells; host or cells: primary human bronchial epithelial cells from CF subjects (F508del/MF-HBE), differentiated at air-liquid interface
- Sequence (P13569 with tags, fused parts or gaps DEL508-508): as above
- Method description: HBE assay: Ussing chamber assay of CFTR-mediated short-circuit currents
- Assay type: cell-based
- Condition: Table 12; read-out: HBE EC50
- Protocol: 1. Ussing Chamber Assay of CFTR-Mediated Short-Circuit Currents […] To isolate the CFTR-mediated short-circuit (ISC) current, F508del/MF-HBE grown on Costar® Snapwell™ cell culture inserts were mounted in an Ussing chamber and the transepithelial ISC was measured under voltage-clamp recording conditions (Vhold=0 mV) at 37° C. […] The CFTR-mediated ISC (μA/cm^2) for each condition was determined from the peak forskolin response to the steady-state current following inhibition. […]

Compound | Test target | EC50
Cc1cccc(C)c1-c1cc2nc(n1)NS(=O)(=O)c1cccc(c1)C(=O)N(Cc1cncc(N(C)C3CCC34CCC4)n1)[C@H](CC(C)(C)C)CO2 (stereo partly drawn) [Compound 438] | CFTR (Homo sapiens, UniProt P13569, DEL508-508) | < 1 µM
Cc1cccc(C)c1-c1cc2nc(n1)NS(=O)(=O)c1cccc(c1)C(=O)N(Cc1cncc(N(C)C(C)C)n1)[C@H](CC(C)(C)C)CO2 [Compound 881] | CFTR (Homo sapiens, UniProt P13569, DEL508-508) | < 1 µM

# get_value(readout='EC50', item= Cc1cccc(C)c1-c1cc2nc(n1)NS(=O)(=O)c1cccc(c1)C(=O)N(Cc1cccc(/C=C/C(C)(C)C)n1)[C@H](CC(C)(C)C)CO2 [Compound 588] ) < 1 µM

----------
# reported Emax; entries follow
- Test target: CFTR (Homo sapiens, UniProt P13569, DEL508-508)
- Construct: endogenous in cells; host or cells: primary human bronchial epithelial cells from CF subjects (F508del/MF-HBE), differentiated at air-liquid interface
- Method description: HBE assay: Ussing chamber assay of CFTR-mediated short-circuit currents
- Assay type: cell-based
- Condition: Table 11; read-out: HBE Max Activity (%)

Hello, I am looking for reported Emax with CFTR (Homo sapiens, UniProt P13569, DEL508-508) for Cc1cccc(C)c1-c1cc2nc(n1)NS(=O)(=O)c1cccc(c1)C(=O)N(Cc1nccc(C(C)C)n1)[C@H](CC(C)(C)C)CO2 [Compound 121] . Could you help? > 60%

Hello, I am looking for reported Emax with CFTR (Homo sapiens, UniProt P13569, DEL508-508) for Cc1cccc(C)c1-c1cc2nc(n1)NS(=O)(=O)c1cccc(c1)C(=O)N(Cc1ncc(N3CCC4(CC3)CC4)cn1)[C@H](CC(C)(C)C)CO2 [Compound 708] . Could you help? > 60%

Hello, I am looking for reported Emax with CFTR (Homo sapiens, UniProt P13569, DEL508-508) for Cc1cccc(C)c1-c1cc2nc(n1)NS(=O)(=O)c1cccc(c1)C(=O)N(Cc1ncc(OC(C)C)cn1)[C@H](CC(C)(C)C)CO2 [Compound 118] . Could you help? > 60%

----------
- Test target: CFTR (Homo sapiens, UniProt P13569, DEL508-508)
- Construct: endogenous in cells; host or cells: primary human bronchial epithelial cells from CF subjects (F508del/MF-HBE), differentiated at air-liquid interface
- Method description: HBE2 assay: Ussing chamber assay of CFTR-mediated short-circuit currents
- Type: cell-based
- Condition: 3 μM corrector; F508del/MF-HBE cells; with 44 nM potentiator, 18-24 hours, 20% human serum
- Description: Ussing Chamber Assay of CFTR-Mediated Short-Circuit Currents After four days the apical media was removed, and the cells were grown at an air liquid interface for >14 days prior to use. To isolate the CFTR-mediated short-circuit (ISC) current, F508del/MF-HBE grown on Costar® Snapwell™ cell culture inserts were mounted in an Ussing chamber and the transepithelial ISC was measured under voltage-clamp recording conditions (Vhold=0 mV) at 37° C. […]
Measured parameter: HBE2 Activity at 3 μM (%)

Molecule | Test target | Result
Cc1cccc(C)c1-c1cc2nc(n1)NS(=O)(=O)c1cccc(c1)C(=O)N(Cc1cncc(N(C)C3CCC3)n1)[C@]1(CCC(C)(C)C1)CO2 (single isomer, unassigned) [Compound 1326] | CFTR (Homo sapiens, UniProt P13569, DEL508-508) | +++ (+++ is >60+)
Cc1cccc(C)c1-c1cc2nc(n1)NS(=O)(=O)c1cccc(c1)C(=O)N(Cc1cncc(N3CCCC[C@H]3C)n1)[C@H](CC1CC(C)(C)C1)CO2 [Compound 1901] | CFTR (Homo sapiens, UniProt P13569, DEL508-508) | +++ (+++ is >60+)
